experiment: resazurin metabolic signal in HepG2 cells – cell-based, resazurin fluorescence, 24 h, PK04 Diversity Set, profiling panel (AID 1172); details: HepG2 viability, higher = more signal; note: test concentration not given here
readout kind: z-score
Form field (numeric): enter value without unit.

Recorded results for 3 molecules are shown here.
molecule	recorded result
CCCNC(=O)[C@@]1(C)c2ccccc2C(=O)N(Cc2cc(F)cc(C(F)(F)F)c2)[C@H]1c1ccc(CO)cc1	1.08
O=C1C2C=CC(C(O)c3ccc(Br)cc3)N(n3cnnc3)C2C(=O)N1Cc1ccccc1 (centres undefined)	-0.009
O=C1OCC=C[C@H]2OC34C=CCN(c5ccc6ccccc6c5)C(=O)[C@H]3N(CCO)C(=O)[C@@H]4[C@@H]12 (some centres undefined)	-0.147

response.value for COC(=O)[C@@]1(Cc2ccc(OC)cc2)[C@H]2c3cc(C(=O)N4CCCC4)n(C[C@H](O)CO)c3C[C@H]2CN1C(=O)c1ccccc1 (field: z-score) = -0.0006

* * *

# z-score per record follows
assay: compound effects on hepatocellular carcinoma cell viability – HepG2, calcein-AM fluorescence, 48 h, basal, profiling panel (AID 1164); settings: higher = more signal; note: test concentration not given here
Form field (numeric): enter value without unit.

compound	z-score
C=C(CCCC)C(=O)CC[C@@H](OC(=O)c1ccccc1-c1ccccc1C(=O)O)c1ccc(CO)o1	0.102
COc1cc2c(cc1O)C(c1ccc(CN3CCCC3)cc1)N(Cc1sc3ccccc3c1Cl)CC2 (stereo not drawn)	-1.5

Would you kindly look at the next entry?
response.value for O=C(NCc1ccccc1)[C@@H]1c2ccccc2C(=O)N(C2CCCCC2)[C@H]1c1ccc(CO)cc1 (field: z-score) = 1.54

* * *

assay: probe aLefty1 binding on compound microarray – biochemical, small-molecule microarray, 635/667 nm fluorescence, primary screen (AID 1153); conditions: higher = more signal;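 note: score merges spot fluorescence with signal-to-noise ratio from the scanned slide images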
readout kind: composite z-score

molecule	composite z-score
C=C(CCCC)C(=O)CC[C@H](OC(C)=O)c1ccc(CO)o1	0.929

response.value for CCCCCCC#C[Si](O[C@H](c1ccccc1)c1cn([C@H](C)c2ccccc2)nn1)(C(C)C)C(C)C (field: composite z-score) = -0.234

response.value for COCCOC(=O)N1C(=O)[C@@]2(c3cc(C#CC4=CCCCC4)ccc31)[C@H](c1ccc(OCCO)cc1)N1[C@H](c3ccccc3)[C@H](c3ccccc3)OC(=O)[C@H]1[C@@H]2C(=O)Nc1nc2ccccc2s1 (field: composite z-score) = 0.114

response.value for C=CCNC(=O)[C@H]1[C@@H]2C(=O)O[C@@H](c3ccccc3)[C@@H](c3ccccc3)N2[C@@H](c2ccc(O)cc2)[C@]12C(=O)Nc1ccc(C#Cc3ccc(OC)cc3)cc12 (field: composite z-score) = -0.0084

response.value for COc1cc(CO)cc(I)c1O[C@H]1C=C(C(=O)NCCO)C[C@@H](N(CCc2cccc(F)c2)C(=O)CCC2CCCC2)[C@@H]1O (field: composite z-score) = 0.437

* * *

# z-score per record follows
assay: blood-stage malaria parasite viability loss – strain 3D7, DAPI fluorescence, 100 nL, primary screen (AID 1184);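 note: parasites grown inside human red blood cells in medium with human serum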; conditions: P. falciparum 3D7 growth, 3 d, higher = more signal
Form field (numeric): enter value without unit.

Recorded results for 4 compounds are shown here.
compound	z-score
CN(C)CCCN1C(=O)[C@@]2(c3ccc([N+](=O)[O-])cc3)CC(=O)N(C3CCCCC3)[C@@H]2c2ccc(CO)cc21	0.615
CC(c1ccccc1)C(O)C1C=CC2C(=O)N(Cc3ccccc3)C(=O)C2N1n1cnnc1 (stereo not given)	-0.864
Cc1ccccc1/C=C/C=O	-0.198
C=C(/C(=C/C[C@@H](OC(=O)c1ccncc1)c1ccc(CO)o1)c1cc(C(=O)OC)ccc1OC)C(C)C	-1.01

Would you kindly look at the next entry?
response.value for COc1ccc(C#Cc2ccc3c(c2)[C@]2(C(=O)N3)[C@H](C(=O)N3CCc4cc(OC)c(OC)cc4C3)[C@H]3C(=O)O[C@H](c4ccccc4)[C@H](c4ccccc4)N3[C@@H]2c2ccc(OCCO)cc2)cc1 (field: z-score) = -1.36

* * *

test: hepatitis C replication reporter changes, two-sided – Huh7 cells, luciferase reporter, HCV replication inhibitor project, primary screen (AID 1109); conditions: Huh7 HCV replicon luciferase reporter, 48 h; higher = more signal;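 note: huh7 hepatoma cells harbouring a luciferase neomycin HCV replicon reporter; luciferase luminescence as measure of HCV replicon replication; test concentration not given here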
readout kind: z-score
Form field (numeric): enter value without unit.

smiles repr	readout kind	recorded result
COC(=O)c1c(CC[C@@H](CO)NC(=O)Nc2ncn[nH]2)oc(C(=O)Cc2ccccc2)c1C(=O)OC	z-score	0.0922
CC(=O)NCCCC[C@@H]1NC(=O)[C@@H]2C[C@H](C(=O)NCCCCCC[N+](C)(C)C)[C@H](c3cccc(OCCO)c3)N2C1=O	z-score	0.625
CC(=O)NCCCC[C@@H]1NC(=O)[C@@H]2C[C@H](C(=O)NCc3ccc(F)cc3)[C@H](c3ccc(O)cc3)N2C1=O	z-score	-0.673

Would you kindly look at the next entry?
response.value for COC(=O)[C@@]1(Cc2ccc(OC)cc2)[C@H]2c3cc(C(=O)N4CCCC4)n(CCc4ccccn4)c3C[C@H]2CN1C(=O)c1ccccc1 (field: z-score) = -0.216

* * *

assay: calcein-AM signal in unstimulated myeloma cells – cell-based, calcein-AM fluorescence, 48 h, PK04 Diversity Set, profiling panel (AID 1166); conditions: RPMI8226 myeloma viability, higher = more signal;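 note: cells grown under basal conditions without added stimulus; test concentration not given here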
# z-score per record follows

Recorded results for 6 molecules are shown here.
molecule	z-score
Cc1ccc(F)cc1S(=O)(=O)N[C@@H]1CCN(Cc2ccc(C(F)(F)F)cc2)C1	-2.09
CCCC[C@@H]1C[C@H]1[C@@H](NC(=O)c1ccccc1)c1ccccc1	-1.48
O=C1C2C=CC(C(O)c3cccc4ccccc34)N(n3cnnc3)C2C(=O)N1Cc1ccccc1 (stereo unspecified)	-1.81
COCCCNC(=O)[C@@]1(C)c2ccccc2C(=O)N(Cc2ccccc2)[C@H]1c1ccc(CO)cc1	-2.12
O=c1cccc(-c2ccc3ccccc3c2)o1	-0.406
CC(C)C(=C=CC[C@H](O)c1ccccc1OCCO)CCO	-1.56

Would you kindly look at the next entry?
response.value for CC(=O)NCCCC[C@@H]1NC(=O)[C@@H]2C[C@H](C(=O)NCCCCCC[N+](C)(C)C)[C@H](c3cccc(OCCO)c3)N2C1=O (field: z-score) = 0.397

* * *

molecular target: Calmodulin-1 (Homo sapiens) (UniProt P0DP23); test: small molecules binding calmodulin-1 with EGTA – biochemical, small-molecule microarray, Cy5-labelled CALM1, profiling panel (AID 1111); conditions: Cy5-CALM1 binding fluorescence, higher = more signal;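 note: labelled calmodulin applied in Tris saline Tween buffer holding calcium plus EGTA and DTT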
Everything with composite z-score lower than 0.5 is no (0); everything else, including exactly 0.5, is yes (1).

Reference set, count: 3
molecule	system	classification
COc1cc2c(cc1O)C(c1ccc(CN3CCCC3)cc1)N(Cc1sc3ccccc3c1Cl)CC2 (stereo unspecified)	Calmodulin-1 (Homo sapiens) (UniProt P0DP23)	no (0)
CC1(C)C(=O)C(c2ccccc2)=C2CN3C(=O)N(CCc4ccccc4)C(=O)C3(Cc3ccccc3)C=C21 (stereo unspecified)	Calmodulin-1 (Homo sapiens) (UniProt P0DP23)	yes (1)
CCN(CC)c1ccc(N2CC=CC34O[C@@H]5/C=C\CCCOC(=O)C5[C@H]3C(=O)N(CCCO)[C@@H]4C2=O)cc1 (stereo partly specified)	Calmodulin-1 (Homo sapiens) (UniProt P0DP23)	no (0)

[ask] Form field: composite z-score at least 0.5? Entry: C=CC[C@@]1(C(=O)NCc2ccccc2)N=C(c2ccc(OCCCO)cc2)O[C@@H]1c1ccccc1CN=[N+]=[N-]
[reply] yes (1)

[ask] Form field: composite z-score at least 0.5? Entry: COCCOC(=O)N1C(=O)[C@@]2(c3cc(C#CC4=CCCCC4)ccc31)[C@H](C(=O)N1CCN(c3ncccn3)CC1)[C@H]1C(=O)O[C@H](c3ccccc3)[C@H](c3ccccc3)N1[C@@H]2c1ccc(OCCO)cc1
[reply] yes (1)

[ask] Form field: composite z-score at least 0.5? Entry: C=C(CCCC)C(=O)CC[C@@H](OC(=O)c1ccccc1-c1ccccc1C(=O)O)c1ccc(CO)o1
[reply] no (0)

* * *

# composite z-score per record follows
assay: small molecules captured by biotinylated probe aFGF10 – biochemical, small-molecule microarray, fluorescence 635/667, stem cell growth factor project, primary screen (AID 1071); details: higher = more signal;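 note: score merges 667 nm spot intensity and signal to noise from triplicate slides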
Form field (numeric): enter value without unit.

compound	composite z-score
C=CCC(OC(C)=O)[C@@H]1[C@@H](N(Cc2ccc(-c3ccccc3)cc2)C(=O)c2ccc(C)cc2)c2cc(OCCCO)ccc2N1C(=O)c1ccc2ccccc2n1 (some centres undefined)	0.199

response.value for CCCC[C@H]1OB(O)C[C@H]2C1=C(C)Cn1c(=O)n(-c3ccccc3)c(=O)n12 (field: composite z-score) = 0.365

response.value for O=C1OCC=C[C@H]2OC34C=CCN(c5ccc6ccccc6c5)C(=O)[C@H]3N(CCO)C(=O)[C@@H]4[C@@H]12 (some centres undefined) (field: composite z-score) = -0.361

response.value for COCCOC(=O)N1C(=O)[C@@]2(c3cc(C#CCCO)ccc31)[C@H](C(=O)NC[C@H](O)c1ccccc1)[C@H]1C(=O)O[C@H](c3ccccc3)[C@H](c3ccccc3)N1[C@@H]2c1ccc(OCCO)cc1 (field: composite z-score) = 0.208
